The measurements presented in this section are drawn from paper PMC10783114.

# measurementNotes: in vitro
# measurementSetup: human
observationType: CC50

Form field CC50, entry COc1c(C)c2c(c(O)c1C/C=C(\C)CCC(=O)OCCN1CCOCC1)C(=O)OC2 [Mycophenolate mofetil, mycophenolate mofetil] : > 200 µM

----------
# measurementNotes: Resazurin cytotoxicity assay in non-infected MRC-5 cells
# measurementSetup: human, non-infected MRC-5 cells
observationType: CC50 at 96 h

Form field CC50 at 96 h, entry NC(=O)c1ncn([C@@H]2O[C@H](CO)[C@@H](O)[C@H]2O)n1 [Ribavirin, ribavirin] : > 800 µM
